Values from ChEMBL document CHEMBL1150457

As shown below, each of these compounds has a reported log10 of IC50 value.
# experimental system: Human immunodeficiency virus type 1 protease (Human immunodeficiency virus 1, UniProt Q72874)
Values reflect log10 of reported IC50 (nM).

CC(C)(C)OC(=O)N[C@@H](Cc1ccccc1)[C@H](O)CNC[C@@H](O)[C@H](Cc1ccccc1)NC(=O)C(O)C(F)(F)F (stereo in doubt) = 3.34
CC(C)(C)OC(=O)N[C@@H](Cc1ccccc1)[C@H](O)CNC[C@@H](O)[C@H](Cc1ccccc1)NC(=O)[C@@](C)(O)c1ccccc1 = 2.41
CC(C)(C)OC(=O)N[C@@H](Cc1ccccc1)[C@H](O)CNC[C@@H](O)[C@H](Cc1ccccc1)NC(=O)C(O)C(F)(F)F (single isomer, unassigned; isomer A) = 1.60
CC(C)(C)OC(=O)N[C@@H](Cc1ccccc1)[C@H](O)CNC[C@@H](O)[C@H](Cc1ccccc1)NC(=O)[C@H](O)C(C)(C)C = 1.70
CC(C)(C)OC(=O)N[C@@H](Cc1ccccc1)[C@H](O)CNC[C@@H](O)[C@H](Cc1ccccc1)NC(=O)[C@](C)(O)c1ccccc1 = 3.81

Read the next record carefully.
Query block: Consider the compound CC(C)(C)OC(=O)N[C@@H](Cc1ccccc1)[C@H](O)CNC[C@@H](O)[C@H](Cc1ccccc1)NC(=O)C1(O)CCCC1(C)C (single isomer, unassigned; isomer B) and give its recorded log10 of IC50.
Result block: 2.40

----------
# experimental system: Human immunodeficiency virus type 1 protease (Human immunodeficiency virus 1, UniProt Q72874)
As shown below, each of these compounds has a reported IC50 value.
Express the result in µM but write the number alone.

Look over these answered cases.
CC(C)(C)OC(=O)N[C@@H](Cc1ccccc1)[C@H](O)CNC[C@@H](O)[C@H](Cc1ccccc1)NC(=O)C(C)(O)C(C)(C)CO (stereo in doubt; form 2) = 0.13
CC(C)(C)OC(=O)N[C@@H](Cc1ccccc1)[C@H](O)CNC[C@@H](O)[C@H](Cc1ccccc1)NC(=O)C(C)(O)C(C)(C)CO (stereo in doubt; form 1) = 0.12
CC(C)(C)OC(=O)N[C@@H](Cc1ccccc1)[C@H](O)CNC[C@@H](O)[C@H](Cc1ccccc1)NC(=O)C(C)(C)O = 0.45
CC(C)(C)OC(=O)N[C@@H](Cc1ccccc1)[C@H](O)CNC[C@@H](O)[C@H](Cc1ccccc1)NC(=O)C1(O)CCCC1(C)C (stereo in doubt) = 0.015
CC(C)(C)OC(=O)N[C@@H](Cc1ccccc1)[C@H](O)CNC[C@@H](O)[C@H](Cc1ccccc1)NC(=O)[C@](C)(O)C(C)(C)C = 0.9
CC(C)(C)OC(=O)N[C@@H](Cc1ccccc1)[C@H](O)CNC[C@@H](O)[C@H](Cc1ccccc1)NC(=O)[C@H](O)c1ccccc1 = 0.32
CC(C)(C)OC(=O)N[C@@H](Cc1ccccc1)[C@H](O)CNC[C@@H](O)[C@H](Cc1ccccc1)NC(=O)[C@@H](O)C(C)(C)C = 1.2
CC(C)(C)OC(=O)N[C@@H](Cc1ccccc1)[C@H](O)CNC[C@@H](O)[C@H](Cc1ccccc1)NC(=O)[C@@](C)(O)C(C)(C)C = 0.04
CC(C)(C)OC(=O)N[C@@H](Cc1ccccc1)[C@H](O)CNC[C@@H](O)[C@H](Cc1ccccc1)NC(=O)C(O)(CO)C(C)(C)C (stereo in doubt) = 0.06
CC(C)(C)OC(=O)N[C@@H](Cc1ccccc1)[C@H](O)CNC[C@@H](O)[C@H](Cc1ccccc1)NC(=O)C1(O)COCC1(C)C (stereo in doubt; form 1) = 3.5

Query block: Consider the compound CC(C)(C)OC(=O)N[C@@H](Cc1ccccc1)[C@H](O)CNC[C@@H](O)[C@H](Cc1ccccc1)NC(=O)C1(O)COCC1(C)C (stereo in doubt; form 2) and give its recorded IC50.
Result block: 0.22

Query block: Consider the compound CC(C)(C)OC(=O)N[C@@H](Cc1ccccc1)[C@H](O)CNC[C@@H](O)[C@H](Cc1ccccc1)NC(=O)C(O)(CO)C(C)(C)C (single isomer, unassigned; isomer B) and give its recorded IC50.
Result block: 10
